Some compounds, each annotated with its measured Biodistribution of radioactivity, brain.
Experiment: In vivo biodistribution in normal ICR mice
Conditions: i.v., 30 min
Description: Histograms of brain and intestine uptake were presented in Fig. 6 for comparison, while detailed data concerning the in vivo biodistribution in normal ICR mice were collected in Table S3 in Supplementary information. […] [^125I]7a and [^125I]12a were rapidly cleared from the normal brain, with only small amounts of radioactivity remaining at 60 min post-injection (0.55% ID/g for [^125I]7a and 0.37% ID/g for [^125I]12a). […]
// note: answer is a bare numeric in % injected dose per gram

Solved cases below.
[[record]]
compound = "[18F]CCOc1ccc(COc2ccc(I)cc2)cc1 [[^18F]12a]"
val = 5.02

[[record]]
compound = "FCCOc1ccc(COc2ccc([125I])cc2)cc1 [[^125I]12a]"
val = 0.81


// query Can you share its Biodistribution of radioactivity, brain? I mean this compound: [18F]CCOc1ccc(OCc2ccc(I)cc2)cc1 [[^18F]7a]
// result 3.85

// query What about FCCOc1ccc(OCc2ccc([125I])cc2)cc1 [[^125I]7a] ?
// result 1.05
